The reported measurements were obtained from PubChem BioAssay (NCI).

- System: CAKI-1 renal
- protocol-details: NCI-60 one-dose screen, 48 h
- test-context: 10 µM unless noted
The panel holds about 83,000 compounds, 20% with a hit somewhere; the sample as a whole holds those more often. Active and inactive are the calls of the source. Rule for the calls: active = growth percent below 10; inactive = the rest.
Write down the outcome that applies. Available outcomes: label 1 = active, label 0 = inactive

- compound: "C[C@]12CC[C@H](O)CC1=CC[C@@H]1[C@@H]2CC[C@]2(C)C(=O)CC[C@@H]12"
  assigned-category: "label 0"
- compound: "CC1=C(CO)C2=C(C)C3(CC3)[C@@](C)(O)C(=O)C2=C1"
  assigned-category: "label 1"
- compound: "COc1ccc(OC)c(/C=C/[N+](=O)[O-])c1"
  assigned-category: "label 1"

Inquiry: Each compound tested received a call. Report the one for Cc1ccc(C(=O)OC(C(=O)O)C(OC(=O)c2ccc(C)cc2)C(=O)O)cc1 (configuration not stated) (tested in a mixture with another compound) .
Reply text: label 0

Inquiry: Each compound tested received a call. Report the one for CC[C@@]1(O)C[C@H](OC2CC(N(C)C)C(O)C(C)O2)c2c(O)c3c(c(O)c2[C@H]1OC1CC(N(C)C)C(O)C(C)O1)C(=O)c1cccc(O)c1C3=O (some centres not stated) .
Reply text: label 1

Inquiry: Each compound tested received a call. Report the one for CC[C@@]1(O)C(=O)OCc2c1cc1n(c2=O)Cc2cc3ccccc3nc2-1 .
Reply text: label 1

Inquiry: Each compound tested received a call. Report the one for CC[C@@]1(O)C[C@H](OC2CC(N(C)C)C(OC3CC(O)C(OC4CCC(=O)C(C)O4)C(C)O3)C(C)O2)c2c(cc3c(c2O)C(=O)c2c(O)ccc(O)c2C3=O)[C@H]1C(=O)OC (some centres not stated) .
Reply text: label 1

---

- System: M14 melanoma
- protocol-details: NCI-60 one-dose screen, 48 h (100 = growth as untreated, 0 = no growth, -100 = all killed)
- test-context: 10 µM unless noted
This is part of a sample that, as a whole, favours compounds with a hit. Of some 83,000 tested, about 20% had one in any assay.
recorded-metric: growth (%)
Answer with a number only, understood to be in %.

- compound: "CC[C@@]1(O)C[C@H](OC2CC(N(C)C)C(OC3CC(O)C(OC4CCC(=O)C(C)O4)C(C)O3)C(C)O2)c2c(cc3c(c2O)C(=O)c2c(O)ccc(O)c2C3=O)[C@H]1C(=O)OC (stereo not given in full)"
  growth [%]: 3.55
- compound: "CCCCCCCCCCCC1CCCC(C)N1 (stereo not given)"
  growth [%]: 95.3
- compound: "CC[C@](O)(C(=O)O)c1cc2n(c(=O)c1CO)Cc1cc3ccccc3nc1-2"
  growth [%]: -26.5
- compound: "NCCc1ccc(OCc2ccccc2)c(OCc2ccccc2)c1"
  growth [%]: 102
- compound: "CCOC(=O)C(NC(=O)C(Cc1ccc(N(CCCl)CCCl)cc1)NC(C)=O)C(C)C (stereo not given)"
  growth [%]: 84.1

Inquiry: Field request: growth | item: CC1=C2C(=O)[C@H]3[C@@H](CC=C4C[C@@H](O)CC[C@@]43C)[C@@H]2CC[C@]12O[C@@H]1C[C@H](C)CN[C@H]1[C@H]2C
Reply text: 92.9

Inquiry: Field request: growth | item: CC[n+]1c(-c2ccccc2)c2cc(N)ccc2c2ccc(N)cc21
Reply text: 33

Inquiry: Field request: growth | item: COc1ccc(OC)c(/C=C/[N+](=O)[O-])c1
Reply text: -11.5

Inquiry: Field request: growth | item: Cc1ccc(C(=O)OC(C(=O)O)C(OC(=O)c2ccc(C)cc2)C(=O)O)cc1 (stereo not given) (tested in a mixture with another compound)
Reply text: 45.2

Inquiry: Field request: growth | item: COC1=C(C)C(=O)C2=C(C1=O)C(CO)N1C(C#N)C3CC4C(C1C2N1CCOC41)N3C (stereo not given)
Reply text: -85.9
